These measurements were taken from patent US7842469B2.

Reported Serum τ1/2 (h) rat values follow for various molecules
test: Serum stability in rat serum at 37° C.; type: in vitro ADME; details: mono-exponential fit
Write it as a number; the unit h goes unstated.

Reference set, count: 2
molecule	Serum τ1/2 (h) rat
C124A/K300A: RLuc mutant C124A/K300A (protein) MASKVYDPEQRKRMITGPQWWARCKQMNVLDSFINYYDSEKHAENAVIFLHGNAASSYLWRHVVPHIEPVARCIIPDLIGMGKSGKSGNGSYRLLDHYKYLTAWFELLNLPKKIIFVGHDWGAALAFHYSYEHQDKIKAIVHAESVVDVIESWDEWPDIEEDIALIKSEEGEKMVLENNFFVETMLPSKIMRKLEPEEFAAYLEPFKEKGEVRRPTLSWPREIPLVKGGKPDVVQIVRNYNAYLRASDDLPKMFIESDPGFFSNAIVEGAKKFPNTEFVKVKGLHFSQEDAPDEMGKYIASFVERVLKNEQ	3.9
C124A/M191L: RLuc mutant C124A/M191L (protein) MASKVYDPEQRKRMITGPQWWARCKQMNVLDSFINYYDSEKHAENAVIFLHGNAASSYLWRHVVPHIEPVARCIIPDLIGMGKSGKSGNGSYRLLDHYKYLTAWFELLNLPKKIIFVGHDWGAALAFHYSYEHQDKIKAIVHAESVVDVIESWDEWPDIEEDIALIKSEEGEKMVLENNFFVETMLPSKILRKLEPEEFAAYLEPFKEKGEVRRPTLSWPREIPLVKGGKPDVVQIVRNYNAYLRASDDLPKMFIESDPGFFSNAIVEGAKKFPNTEFVKVKGLHFSQEDAPDEMGKYIKSFVERVLKNEQ	5.1

Proceeding to the next molecule to report its Serum τ1/2 (h) rat.
So what's the measured Serum τ1/2 (h) rat for this one? A54G/A55G/C124A: RLuc mutant A54G/A55G/C124A (protein) MASKVYDPEQRKRMITGPQWWARCKQMNVLDSFINYYDSEKHAENAVIFLHGNGGSSYLWRHVVPHIEPVARCIIPDLIGMGKSGKSGNGSYRLLDHYKYLTAWFELLNLPKKIIFVGHDWGAALAFHYSYEHQDKIKAIVHAESVVDVIESWDEWPDIEEDIALIKSEEGEKMVLENNFFVETMLPSKIMRKLEPEEFAAYLEPFKEKGEVRRPTLSWPREIPLVKGGKPDVVQIVRNYNAYLRASDDLPKMFIESDPGFFSNAIVEGAKKFPNTEFVKVKGLHFSQEDAPDEMGKYIKSFVERVLKNEQ 3.0
